Sourced from PubChem BioAssay AID1159580

# experiment-summary: chemical genetic growth profiling, strain panel (AID 1159580);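 further: tested at 20 µM; growth read once vehicle control cultures reached saturation at 30 °C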
# measurement-parameters: S. cerevisiae deletion strains, growth OD, locus YPR135W, strain CTF4, stronger effect = lower value
Screen size: about 5,500 compounds; about 2,000 (36%) were called active. Roughly 18% stayed inconclusive and do not appear here. This is one part of the list.
API: label(entry) gives Criterion met if the entry's normalized growth is strictly smaller than 1; on equality or larger values it gives Criterion not met.

> print(dat)
                           smiles.data         class.name
1  N/C(=N/OC(=O)C(Cl)Cl)c1cccc(Cl)c1Cl  Criterion not met
2       COC(=O)c1ccccc1-n1cccc1C(=O)OC      Criterion met

Find out if reported normalized growth for `NC(=S)c1ccc2nonc2c1` is less than 1 Criterion not met

Find out if reported normalized growth for `COc1ccc(/C=C(\C#N)c2nc3ccccc3[nH]2)cc1OC` is less than 1 Criterion met

Find out if reported normalized growth for `c1ccc2c(c1)-c1cccc3cccc-2c13` is less than 1 Criterion met

Find out if reported normalized growth for `O=C(CSc1nnc(-c2ccco2)n1-c1ccc2c(c1)OCCO2)c1cccc(F)c1` is less than 1 Criterion met

Find out if reported normalized growth for `CCOC(=O)c1csc(N/N=C2/CCCc3ccccc32)n1` is less than 1 Criterion met

Find out if reported normalized growth for `CCN(C(=S)Nc1ccc(OC)cc1)c1ccccc1` is less than 1 Criterion met
